Values were extracted from ChEMBL document CHEMBL3433997.

Biological target: Solute carrier family 2, facilitated glucose transporter member 1 (Homo sapiens) (UniProt P11166)
Sequence (P11166 whole entry): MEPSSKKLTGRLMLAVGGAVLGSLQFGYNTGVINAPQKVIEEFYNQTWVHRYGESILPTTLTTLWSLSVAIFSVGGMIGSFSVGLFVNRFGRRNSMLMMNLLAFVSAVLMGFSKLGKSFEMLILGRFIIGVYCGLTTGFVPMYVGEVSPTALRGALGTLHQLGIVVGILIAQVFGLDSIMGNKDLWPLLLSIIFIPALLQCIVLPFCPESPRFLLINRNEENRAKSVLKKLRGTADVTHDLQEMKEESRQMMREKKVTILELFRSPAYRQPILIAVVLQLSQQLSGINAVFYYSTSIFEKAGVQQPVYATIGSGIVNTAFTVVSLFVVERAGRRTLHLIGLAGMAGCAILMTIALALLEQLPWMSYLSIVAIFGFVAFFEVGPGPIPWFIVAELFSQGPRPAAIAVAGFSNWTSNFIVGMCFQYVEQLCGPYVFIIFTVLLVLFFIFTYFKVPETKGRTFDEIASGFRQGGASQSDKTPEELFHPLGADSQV
Assay: ST_JUDE_LEISH: Cytotoxicity at 2uM final concentration against transgenic Leishmania Mexicana promastigotes LmGLUT1 that are glucose transport deficient and complemented with the human glucose transporter GLUT1. Activity is measured by DNA content using SYBR green in vitro
Type: functional
Decision: inhibition compared against 1%; not below it gives yes, below it gives no.

**Q:** Could you verify whether the entry c1cc(-c2ccc(CN3CCCC3)cc2)cc(-c2nc3ccccc3[nH]2)c1 shows inhibition of no less than 1%?
**A:** no

**Q:** One more molecule: CNC(=O)c1cc(F)c(F)cc1Nc1nc(Nc2cccc(CS(C)(=O)=O)c2)ncc1Cl
**A:** yes

**Q:** One more molecule: CCC(CC)C(CC(=O)NC(C)(C)CCc1ccccc1OC)Nc1ccc(C#N)c2ccccc12 (stereo not given)
**A:** yes

**Q:** One more molecule: CCCn1cc2c(ccc3nc(N)nc(N)c32)n1
**A:** no

**Q:** One more molecule: Cc1n[nH]c2ccc(-c3cc(OC[C@@H](N)Cc4ccccc4)cnc3-c3cc4ccccc4s3)cc12
**A:** yes

====

Target: Solute carrier family 2, facilitated glucose transporter member 1 (Homo sapiens)
Assay: ST_JUDE_LEISH: Cytotoxicity at 2uM final concentration against transgenic Leishmania Mexicana promastigotes LmGLUT1 that are glucose transport deficient and complemented with the human glucose transporter GLUT1. Activity is measured by DNA content using SYBR green in vitro
Assay type: functional
Can you tell me inhibition for the items I'm about to list?
Output spec: scalar in %, unitless text.

**Q:** Entry under review: Cc1ccccc1OCC(O)CN1CCC(C2CCN(CC(O)COc3ccccc3C)CC2)CC1 (centres undefined) . Reported inhibition?
**A:** 2.25

**Q:** One more compound: CCCCCOc1ccc(N2C(N)=NC(N)=NC2(C)C)cc1
**A:** 2.39

**Q:** One more compound: CCCCCN1CCCC(CNS(=O)(=O)c2cccc(C(=O)Nc3ccc(C(F)(F)F)cc3)c2)C1 (centres undefined)
**A:** 0.67

**Q:** One more compound: CC(C)CCCC(C)(C)NC[C@@H](O)[C@H](Cc1ccccc1)NC(=O)c1cc(NC(C)C)cc(N2CCCCS2(=O)=O)c1F
**A:** 7.51

**Q:** One more compound: O=S(=O)(NCCN1CCCC1)c1cccc(-c2cccc(CNCc3ccsc3)c2)c1
**A:** -0.74

**Q:** One more compound: O=C(Nc1ccc(Br)cc1)N(CCN1CCOCC1)CC(O)COCc1ccc(Cl)c(Cl)c1 (centres undefined)
**A:** 2.07

**Q:** One more compound: CC(C)C(=O)n1ncc2c3c(N)nc(N)nc3ccc21
**A:** -0.81

**Q:** One more compound: O=C(c1cccc(Cl)c1)N1CCN(c2ccc([N+](=O)[O-])c(NC3CC3)c2)CC1
**A:** 0.4

**Q:** One more compound: CC(C)CN1CCCN(Cc2cccc(NC(=O)c3ccc(Cl)c(Cl)c3)c2)CC1
**A:** 10.4

====

Molecular target: Hexose transporter 1 (Plasmodium falciparum)
Assay: ST_JUDE_LEISH: Cytotoxicity at 2uM final concentration against transgenic Leishmania Mexicana promastigotes LmPfHT that are glucose transport deficient and complemented with the Plasmodium falciparum hexose transporter. Activity is measured by DNA content using SYBR green in vitro
Assay type: functional
recorded metric: inhibition
Please append the unit to your numeric answer.

**Q:** # get_value(readout= inhibition, system= Hexose transporter 1 (Plasmodium falciparum)) for O=C1C(=Cc2c(O)ccc3ccccc23)SC(=NCc2ccccc2)N1Cc1ccccc1
**A:** 2.01%

**Q:** One more molecule: CCN(CC)CCNc1ccnc2ccc3ccccc3c12
**A:** 6.78%

**Q:** One more molecule: Cc1cc(-c2cccc3c(C(=O)N4CCc5cc6nccc(N7CCCN(C)CC7)c6cc54)cccc23)cc(C)n1
**A:** 1.02%

**Q:** One more molecule: CCOc1cccc(C(=O)Nc2nonc2-c2ccc(OC)c(OC)c2)c1
**A:** 9.2%

**Q:** One more molecule: CCn1c(-c2nonc2N)nc2c(-c3ccc(CO)o3)ncc(OCCCN)c21
**A:** 3.21%

**Q:** One more molecule: CC(C)(CNCc1ccccc1)c1nc(-c2ccc(Cl)c(O)c2)c(-c2ccncc2)[nH]1
**A:** 4.73%

**Q:** One more molecule: CCN(CC)C(C)(C)CN(Cc1ccc(-c2ccc(C(F)(F)F)cc2)cc1)C(=O)Cn1c(CCc2cccc(F)c2F)nc(=O)c2ccccc21
**A:** 5.18%

**Q:** One more molecule: CC(C)c1cc(Oc2c(I)cc(CCNC(=N)N)cc2I)ccc1O
**A:** -0.01%

**Q:** One more molecule: Nc1ccc(-c2cc(Cl)cc(Cl)c2)cc1-c1cc2ccccc2[nH]1
**A:** 1.08%

**Q:** One more molecule: O=C(C(=O)c1ccc(Nc2ccnc3cc(-c4ccccn4)ccc23)cc1)c1ccccc1
**A:** -0.47%

**Q:** One more molecule: COc1cc(NC(=O)N2CCc3ccc(OCCN(C(C)C)C(C)C)cc32)cc(C(F)(F)F)c1
**A:** 1.73%

**Q:** One more molecule: CN1CCc2ccc(NC(=O)Nc3ccc(Cl)c(Cl)c3)cc2C1
**A:** 3.67%

**Q:** One more molecule: CCOc1cc(C(C)C)ccc1C1CCN(CCCCNC(=O)c2ccc(NC(=O)c3ccc(Cl)cc3)cc2)CC1
**A:** 4.23%

**Q:** One more molecule: COc1ccccc1-n1ccnc1SCC(=O)Nc1cccc(C(F)(F)F)c1
**A:** 1.61%

**Q:** One more molecule: Cc1ccc(Nc2nccc(NCC(O)c3ccc(C(F)(F)F)cc3)n2)cc1 (stereo not drawn)
**A:** 6.26%

**Q:** One more molecule: Cc1cccc2nc(-c3cccc(-c4cccc(NC(=O)Nc5ccc(F)c(F)c5F)c4)c3)[nH]c12
**A:** 2.51%

**Q:** One more molecule: CC(C)Sc1nc2c(c(=O)n1CCc1ccccc1)C1(CCCCC1)Cc1ccccc1-2
**A:** -1.14%

**Q:** One more molecule: O=C(Nc1ccc2c(c1)CCC2)N[C@H]1CCN(CCCCCNC(=O)C2CC2c2ccc(Cl)c(Cl)c2)C1 (stereo partly drawn)
**A:** 0.43%

**Q:** One more molecule: COc1cc(Cc2cnc(N)nc2N)cc(OCCCCCCC(=O)O)c1OC
**A:** -0.55%

**Q:** One more molecule: O=C(/C=C/c1ccc(Cl)c(Cl)c1)N1CCC(CN2CCC(Cc3nc4ccccc4[nH]3)CC2)CC1
**A:** 1.29%

**Q:** One more molecule: Cc1cccc(NC(=S)NC2CCN(CCCCCNC(=O)/C=C/c3ccc(Cl)c(Cl)c3)CC2)c1
**A:** 1.13%

**Q:** One more molecule: O=C(Nc1cccc(N2CCC(NCc3cnn(-c4cccc(F)c4)c3)CC2)c1)c1ccncc1
**A:** 0.64%

**Q:** One more molecule: COc1ccccc1CCNc1nc(C)cc(N[C@@H](Cc2ccccc2)C(=O)Nc2ccccc2)n1
**A:** 10.7%

**Q:** One more molecule: COc1cc(C(C)C)nc2ccc(NC(=O)c3ccc(C(=O)Nc4ccc5nc(C(C)C)cc(OC)c5c4)cc3)cc12
**A:** 5.94%

**Q:** One more molecule: Cc1ccc(F)cc1S(=O)(=O)Nc1ccc(CCN2CCC(N3CCCCC3)CC2)cc1
**A:** -0.31%

**Q:** One more molecule: O=C(NCCNc1ccnc(NCc2ccc(F)cc2)n1)c1cc2ccccc2s1
**A:** 4.26%

**Q:** One more molecule: CN(CCCNc1ccc(C(=O)Nc2ccc(C(F)(F)F)cc2)cc1[N+](=O)[O-])Cc1ccccc1
**A:** -0.19%

**Q:** One more molecule: O=C(NC(=O)c1ccccc1)NC1CCN(c2ccnc3cc(Cl)ccc23)C1 (stereo not drawn)
**A:** 1.75%

**Q:** One more molecule: CCOc1ccc2ccccc2c1CNCCCCCCNCc1c(OCC)ccc2ccccc12
**A:** 6.69%

**Q:** One more molecule: COc1cc(NCC2(CNCc3cn(Cc4ccccc4)c4ccccc34)CCCCC2)nc2ccccc12
**A:** -0.02%

**Q:** One more molecule: Fc1cc(Cl)ccc1Nc1ccnc2cc(-c3ccc(CNCCN4CCOCC4)o3)ccc12
**A:** 1.07%

**Q:** One more molecule: O=C(Nc1ccc(Cl)cc1)c1ccc(CN2CCCN(Cc3cccc(O)c3)CC2)cc1
**A:** 1.35%

**Q:** One more molecule: Cc1cc(NC(=O)c2cccs2)ccc1OC1CCN(Cc2ccc(F)cc2)C1 (stereo not drawn)
**A:** 0.19%

**Q:** One more molecule: COc1ccc(-c2ccc(NC(=O)c3ccc(Cl)cc3)cc2)cc1CN1CCN(C)CC1
**A:** -2.59%

**Q:** One more molecule: CCN1CCC(N(Cc2ccc(-c3ccc(C(F)(F)F)cc3)cc2)C(=O)Cn2c(CCc3cccc(F)c3F)cc(=O)c3ccccc32)C1 (stereo not drawn)
**A:** 1.38%

**Q:** One more molecule: CC(C)CC(=O)N1CCNC[C@@H]1C(=O)NCc1ccc(Cl)c(Cl)c1
**A:** 1.04%

**Q:** One more molecule: FC(F)(F)c1ccc(N2CCCN(Cc3cccc(-c4ccccc4CNCc4ccc5c(c4)OCO5)c3)CC2)nc1
**A:** -2.51%

**Q:** One more molecule: CCCNCc1ccc(-c2ccc(CN(CC3CCCO3)C(=O)COc3ccccc3Cl)cc2)nc1 (stereo not drawn)
**A:** 4.73%
